Kindly find below log10(Ki) information for human VR1 (Homo sapiens, UniProt Q8NER1) taken from the literature.
Response schema: value (number) is log10 of Ki in units of nM.

Here's what some known entries look like.
[
  {
    "Molecule": "O=C(NCc1ccc(C(F)(F)F)cc1)Nc1cccc2ccc(O)cc12",
    "Measurement target": "human VR1 (Homo sapiens, UniProt Q8NER1)",
    "Property label": "log10(Ki)",
    "Quantitative readout": -1.00
  },
  {
    "Molecule": "O=C(NCc1cc(C(F)(F)F)cc(C(F)(F)F)c1)Nc1cccc2ccc(O)cc12",
    "Measurement target": "human VR1 (Homo sapiens, UniProt Q8NER1)",
    "Property label": "log10(Ki)",
    "Quantitative readout": 0.71
  },
  {
    "Molecule": "C=CCC1c2ccc(F)cc2CCC1NC(=O)Nc1cccc2cnccc12 (stereo not drawn)",
    "Measurement target": "human VR1 (Homo sapiens, UniProt Q8NER1)",
    "Property label": "log10(Ki)",
    "Quantitative readout": 0.34
  }
]

Hey, can you go through the list below and give me log10(Ki) for every item?
1. NS(=O)(=O)c1ccccc1-c1ccc2[nH]c(/C=C/c3ccc(C(F)(F)F)cc3)nc2c1
2. CC(C)(C)OC(=O)Nc1cccc(-c2ccc(NC(=O)CCc3ccc(C(C)(C)C)cc3)cc2)c1
3. CC(C)(C)c1ccc(CCC(=O)Nc2ccc(-c3ccncc3)cc2)cc1
4. O=C(Nc1cccc2cnccc12)NC1CCc2cc(Cl)ccc2C1Cc1ccccc1 (stereo not drawn)
5. O=C(Nc1cccc2cnccc12)NC1CCc2ccccc2C12Cc1ccccc1C2 (stereo not drawn)

0.93
2.04
2.23
0.23
1.86

What value of measured log10(Ki) is listed for `CC(C)(C)c1ccc(CCC(=O)Nc2ccc(-c3cccc(O)c3)c(CO)c2)cc1` ? 1.53

---

System: UniProtKB Q8NER1 | Read-out: Ki | Origin: multiple publications
Numbers only, in nM.

// below: answered compounds
[
  {
    "Compound": "Cc1cc2c(NC(=O)NC3CCc4cc(F)ccc4C3Cc3ccccc3)cccc2cn1 (single isomer, unassigned)",
    "Measurement target": "UniProtKB Q8NER1",
    "Ki / nM": 5.25
  },
  {
    "Compound": "O=C(NCCc1ccc(OC(F)(F)F)cc1)Nc1cccc2cnccc12",
    "Measurement target": "UniProtKB Q8NER1",
    "Ki / nM": 6.03
  }
]

Switching to the query record.
Any idea what Ki came out for `NS(=O)(=O)c1ccccc1-c1ccc2[nH]c(/C=C/c3ccc(OC(F)(F)F)cc3)nc2c1` on UniProtKB Q8NER1? 6

---

Literature pKi values, system: human VR1 (Homo sapiens, UniProt Q8NER1).
One number for each entry, as −log10 of the molar value.

[
  {
    "Compound": "Cc1cc2c(NC(=O)NCc3cccc(C(F)(F)F)c3)cccc2cn1",
    "pKi": 7.41
  },
  {
    "Compound": "COc1ccc(CNC(=O)Nc2cccc3cnccc23)cc1",
    "pKi": 6.71
  },
  {
    "Compound": "O=C(NCc1ccc(C(F)(F)F)cc1)Nc1cccc2c(Cl)nccc12",
    "pKi": 8.13
  }
]

Would you mind giving pKi for every compound in the list below?
1. O=C(CCc1ccc(C(F)(F)F)cc1)Nc1ccc(-n2cnc(Cl)c2)c(C(F)(F)F)c1
2. CC(C)(C)c1ccc(/C=C/c2nc3cc(-c4ccccc4CO)c(C(F)(F)F)cc3[nH]2)cc1

[7.04, 8.19]

Please give pKi for each item listed below.
1. O=C(Nc1cccc2cnccc12)NC1CCc2cccc(Cl)c2C1Cc1ccccc1 (stereo not shown)
2. O=C(NCc1ccc(Cl)cc1)Nc1cccc2cnccc12

8.12
7.51

---

pKi values for human VR1 (Homo sapiens, UniProt Q8NER1) compiled from several publications are listed below.
Numbers only, as −log10 of the molar value.

[
  {
    "Compound": "CC(C)(C)c1ccc(CCC(=O)Nc2ccc(-c3ccc(O)cc3)nc2)cc1",
    "pKi": 7.96
  },
  {
    "Compound": "O=C(NCc1ccc(C(F)(F)F)cc1)Nc1cccc2cncc(Cl)c12",
    "pKi": 5.13
  },
  {
    "Compound": "COc1ccc2c(c1)CCC(NC(=O)Nc1cccc3cnccc13)C2Cc1ccc(Br)cc1 (centres unmarked)",
    "pKi": 8.89
  },
  {
    "Compound": "O=C(Nc1cccc2cnccc12)NC1CCc2cc(F)ccc2C1CC1CC1 (centres unmarked)",
    "pKi": 9.08
  },
  {
    "Compound": "CC(C)(C)c1ccc(CCC(=O)Nc2ccc(-c3cccc(Cl)c3)cc2)cc1",
    "pKi": 5.34
  },
  {
    "Compound": "O=C(CCc1ccc(C(F)(F)F)cc1)Nc1cnc(-n2ccnc2)c(C(F)(F)F)c1",
    "pKi": 5.41
  },
  {
    "Compound": "Oc1ccccc1-c1ccc2[nH]c(/C=C/c3ccc(SC(F)(F)F)cc3)nc2c1",
    "pKi": 6.09
  },
  {
    "Compound": "COc1ccc2c(c1)CCC(NC(=O)Nc1cccc3cnccc13)C2Cc1ccc(Cl)cc1 (centres unmarked)",
    "pKi": 8.74
  },
  {
    "Compound": "CC(C)(C)c1ccc(CCC(=O)Nc2ccc(-c3cccc(N)c3)cc2)cc1",
    "pKi": 7.32
  },
  {
    "Compound": "CC(C)(C)c1ccc(CCC(=O)Nc2ccc(-c3cccc(NC(N)=O)c3)cc2)cc1",
    "pKi": 7.28
  }
]

The record that follows has no pKi shown yet.
Return reported pKi; argument: `O=C(NCCc1ccc(C(F)(F)F)cc1)Nc1cccc2cnccc12` 7.65
